# System: Echinochloa crus-galli
# test-method-notes: Test Example 2: herbicidal effect test by treatment during growing period in paddy rice cultivation (seven days after seeding)
# Assay type: in vivo
# recorded-conditions: 120 g/10a active ingredient, assessed 14 days after treatment, dry weight vs untreated area
# Procedure: This test was conducted in a double system per one agent solution concentration area, and the herbicidal rates (%) were determined by the following equation (Math. 1) on 14 days after the treatment with the agents. Herbicidal Rate (%)={1-(Average Dry Weight (g) of Plant of Treated Area)/(Average Dry Weight (g) of Plant of Untreated Area)}×100 [Math. 1] Herbicidal Effect Test by Treatment During Growing Period in Paddy Rice Cultivation […]
Field: Herbicidal rate (%) Echinochloa crus-galli. Provide a value for each of the molecules that follow.
Response body: numeric value in %, unit text excluded.

Inquiry: Quickly give me recorded Herbicidal rate (%) Echinochloa crus-galli for CCCC(C)n1oc(=O)c(Cc2ccccc2N(C(=O)C(C)C)S(=O)(=O)C(F)(F)F)c1C (stereo not drawn) [Compound 1-334]
Reply text: 100

Inquiry: Given the molecule Cc1c(Cc2ccccc2N(C(=O)C(C)C)S(=O)(=O)C(F)(F)F)c(=O)on1C(C)c1ccccc1 (stereo not drawn) [Compound 1-337] , write its reported Herbicidal rate (%) Echinochloa crus-galli.
Reply text: 90

Inquiry: Supply reported Herbicidal rate (%) Echinochloa crus-galli belonging to this molecule: Cc1c(Cc2ccccc2N(S(=O)(=O)C(F)(F)F)S(=O)(=O)C(F)(F)F)c(=O)on1CCS(C)(=O)=O [Compound 1-1006]
Reply text: 80

Inquiry: For the molecule CCOC(=O)N(c1ccccc1Cc1c(C)n(CC(C)(C)C)oc1=O)S(=O)(=O)C(F)(F)F [Compound 1-609] , give its measured Herbicidal rate (%) Echinochloa crus-galli value.
Reply text: 90

Inquiry: Write down Herbicidal rate (%) Echinochloa crus-galli measured for item Cc1c(Cc2ccccc2N(C(=O)OCC(C)C)S(=O)(=O)C(F)(F)F)c(=O)on1C(C)(C)C [Compound 1-668]
Reply text: 90

Inquiry: State its Herbicidal rate (%) Echinochloa crus-galli: Cc1c(Cc2cc(F)ccc2N(S(=O)(=O)C(F)(F)F)S(=O)(=O)C(F)(F)F)c(=O)on1CC(C)C [Compound 1-29]
Reply text: 100

Inquiry: Kindly indicate its recorded Herbicidal rate (%) Echinochloa crus-galli. Item: Cc1c(Cc2ccccc2NS(=O)(=O)C(F)(F)F)c(=O)on1C(C)c1ccc(OC(F)(F)F)cc1 (stereo not drawn) [Compound 1-209]
Reply text: 40

Inquiry: Consider the molecule Cc1c(Cc2ccccc2N(S(=O)(=O)C(F)(F)F)S(=O)(=O)C(F)(F)F)c(=O)on1CC1CCCCC1 [Compound 1-994] and give its recorded Herbicidal rate (%) Echinochloa crus-galli.
Reply text: 90

Inquiry: Input Cc1c(Cc2ccccc2NS(=O)(=O)C(F)(F)F)c(=O)on1Cc1ccc(C(C)(C)C)cc1 [Compound 1-192] , output reported Herbicidal rate (%) Echinochloa crus-galli.
Reply text: 40

Inquiry: Complete the entry with Herbicidal rate (%) Echinochloa crus-galli for CCC(C)n1oc(=O)c(Cc2ccccc2N(C(=O)OCC2CCCO2)S(=O)(=O)C(F)(F)F)c1C (stereo not drawn) [Compound 1-829]
Reply text: 90

Inquiry: Please look at this molecule and report its Herbicidal rate (%) Echinochloa crus-galli: COCC(C)n1oc(=O)c(Cc2ccccc2N(C(=O)Cc2ccccc2)S(=O)(=O)C(F)(F)F)c1C (stereo not drawn) [Compound 1-506]
Reply text: 90

Inquiry: Provide only the value of recorded Herbicidal rate (%) Echinochloa crus-galli for Cc1c(Cc2ccccc2NS(=O)(=O)C(F)(F)F)c(=O)on1C1CCCc2ccccc21 (stereo not drawn) [Compound 1-224]
Reply text: 90

Inquiry: Tell me measured Herbicidal rate (%) Echinochloa crus-galli for CCCCC(c1ccccc1)n1oc(=O)c(Cc2ccccc2N(S(=O)(=O)C(F)(F)F)S(=O)(=O)C(F)(F)F)c1C (stereo not drawn) [Compound 1-1041] please.
Reply text: 90

Inquiry: State, in one line, measured Herbicidal rate (%) Echinochloa crus-galli of COCCn1oc(=O)c(Cc2ccccc2N(S(=O)(=O)C(F)(F)F)S(=O)(=O)C(F)(F)F)c1C [Compound 1-996]
Reply text: 70

Inquiry: State, in one line, measured Herbicidal rate (%) Echinochloa crus-galli of CCCOC(=O)N(c1ccccc1Cc1c(C)n(C(C)COC)oc1=O)S(=O)(=O)C(F)(F)F (stereo not drawn) [Compound 1-634]
Reply text: 90

###

# Test system: Amaranthus viridis
# test-method-notes: Test Example 4: herbicidal effect test by treatment of leave and stem in dry field farming (seven days after seeding)
# Assay type: in vivo
# recorded-conditions: 120 g/10a active ingredient; emulsion sprayed seven days after seeding; evaluated 14 days after treatment
readout-type: herbicidal effect (herbicidal rate), Amaranthus viridis

Inquiry: Give recorded herbicidal effect (herbicidal rate), Amaranthus viridis. `Cc1c(Cc2ccc(Cl)cc2NS(=O)(=O)C(F)(F)F)c(=O)on1C(C)C`
Reply text: 40%

Inquiry: Read the entry Cc1c(Cc2ccccc2N(C(=O)OCC(C)C)S(=O)(=O)C(F)(F)F)c(=O)on1C(C)c1ccccc1 (centres unmarked) and write its reported herbicidal effect (herbicidal rate), Amaranthus viridis.
Reply text: 40%

Inquiry: Provide only the value of recorded herbicidal effect (herbicidal rate), Amaranthus viridis for Cc1c(Cc2ccccc2N(S(=O)(=O)C(F)(F)F)S(=O)(=O)C(F)(F)F)c(=O)on1C(C)Cc1ccccc1 (centres unmarked)
Reply text: 60%

Inquiry: Please list herbicidal effect (herbicidal rate), Amaranthus viridis recorded for the molecule `COCCn1oc(=O)c(Cc2ccccc2NS(=O)(=O)C(F)(F)F)c1C`
Reply text: 40%

Inquiry: Retrieve herbicidal effect (herbicidal rate), Amaranthus viridis measured for CCCCC(C)n1oc(=O)c(Cc2ccccc2NS(=O)(=O)C(F)(F)F)c1C (centres unmarked) and print it.
Reply text: 60%

Inquiry: Determine from records and report herbicidal effect (herbicidal rate), Amaranthus viridis for Cc1c(Cc2ccccc2NS(=O)(=O)C(F)(F)F)c(=O)on1CC1CCCO1 (centres unmarked)
Reply text: 40%

Inquiry: Using known records, supply herbicidal effect (herbicidal rate), Amaranthus viridis for COCC(C)n1oc(=O)c(Cc2ccccc2N(S(C)(=O)=O)S(=O)(=O)C(F)(F)F)c1C (centres unmarked)
Reply text: 40%

Inquiry: Please give measured herbicidal effect (herbicidal rate), Amaranthus viridis of the following entry: COCC(C)n1oc(=O)c(Cc2ccccc2N(C(=O)OCc2ccccc2)S(=O)(=O)C(F)(F)F)c1C (centres unmarked)
Reply text: 40%

###

Assign Herbicidal rate (%) Echinochloa crus-galli to each entry below.
# System: Echinochloa crus-galli
# test-method-notes: Test Example 2: herbicidal effect test by treatment during growing period in paddy rice cultivation (seven days after seeding)
# Assay type: in vivo
# recorded-conditions: 120 g/10a active ingredient, assessed 14 days after treatment, dry weight vs untreated area
Quick reminder: number only, in %, skip the unit.

Inquiry: Identify measured Herbicidal rate (%) Echinochloa crus-galli obtained with Echinochloa crus-galli for `Cc1c(Cc2ccccc2NS(=O)(=O)C(F)(F)F)c(=O)on1C1CCCCC1` .
Reply text: 100

Inquiry: Give Herbicidal rate (%) Echinochloa crus-galli only, for `Cc1c(Cc2ccccc2N(C(=O)c2ccccc2)S(=O)(=O)C(F)(F)F)c(=O)on1C(C)(C)C` , using Echinochloa crus-galli data.
Reply text: 90

Inquiry: Tell me Herbicidal rate (%) Echinochloa crus-galli of `C=CCOC(=O)N(c1ccccc1Cc1c(C)n(CC(C)C)oc1=O)S(=O)(=O)C(F)(F)F` when tested on Echinochloa crus-galli.
Reply text: 90

Inquiry: State recorded Herbicidal rate (%) Echinochloa crus-galli with Echinochloa crus-galli, entry `Cc1c(Cc2ccccc2NS(=O)(=O)C(F)(F)F)c(=O)on1CCC(C)(C)C` , no comment.
Reply text: 90

Inquiry: Enter recorded Herbicidal rate (%) Echinochloa crus-galli with Echinochloa crus-galli for Cc1c(Cc2ccccc2N(S(=O)(=O)C(F)(F)F)S(=O)(=O)C(F)(F)F)c(=O)on1C1CCc2ccccc21 (centres unmarked) here.
Reply text: 80

Inquiry: Lab note: Echinochloa crus-galli assay, enter Herbicidal rate (%) Echinochloa crus-galli for `COC(=O)N(c1ccccc1Cc1c(C)n(C(C)C)oc1=O)S(=O)(=O)C(F)(F)F` here
Reply text: 90

Inquiry: Give Herbicidal rate (%) Echinochloa crus-galli for this entry on Echinochloa crus-galli: `C=C(C)Cn1oc(=O)c(Cc2ccccc2NS(=O)(=O)C(F)(F)F)c1C`
Reply text: 90

Inquiry: Print Echinochloa crus-galli Herbicidal rate (%) Echinochloa crus-galli for `Cc1c(Cc2ccccc2N(S(=O)(=O)C(F)(F)F)S(=O)(=O)C(F)(F)F)c(=O)on1CC(F)(F)c1ccccc1` .
Reply text: 80

###

# Tested on: Amaranthus viridis
# test-method-notes: Test Example 4: herbicidal effect test by treatment of leave and stem in dry field farming (seven days after seeding)
# Assay type: in vivo
# recorded-conditions: 120 g/10a active ingredient; emulsion sprayed seven days after seeding; evaluated 14 days after treatment
Give herbicidal effect (herbicidal rate), Amaranthus viridis for every item shown.
State the result as a value with its unit after it.

Inquiry: Please give measured herbicidal effect (herbicidal rate), Amaranthus viridis of the following entry: CCCCC(C)n1oc(=O)c(Cc2ccccc2N(S(=O)(=O)C(F)(F)F)S(=O)(=O)C(F)(F)F)c1C (stereo not shown)
Reply text: 60%

Inquiry: Write down herbicidal effect (herbicidal rate), Amaranthus viridis measured for item `CCC(CC)n1oc(=O)c(Cc2ccccc2N(S(=O)(=O)C(F)(F)F)S(=O)(=O)C(F)(F)F)c1C`
Reply text: 90%

Inquiry: Answer with the recorded herbicidal effect (herbicidal rate), Amaranthus viridis for the compound listed here: CCC(C)Cn1oc(=O)c(Cc2ccccc2N(C(=O)OC)S(=O)(=O)C(F)(F)F)c1C (stereo not shown)
Reply text: 50%

Inquiry: # return recorded herbicidal effect (herbicidal rate), Amaranthus viridis for entry `CSCCn1oc(=O)c(Cc2ccccc2N(S(C)(=O)=O)S(=O)(=O)C(F)(F)F)c1C`
Reply text: 40%

Inquiry: Identify herbicidal effect (herbicidal rate), Amaranthus viridis associated with the compound `CCC(CC)Cn1oc(=O)c(Cc2ccccc2N(S(=O)(=O)C(F)(F)F)S(=O)(=O)C(F)(F)F)c1C`
Reply text: 40%

Inquiry: Give herbicidal effect (herbicidal rate), Amaranthus viridis for CCCC(C)n1oc(=O)c(Cc2ccccc2N(S(=O)(=O)C(F)(F)F)S(=O)(=O)C(F)(F)F)c1C (stereo not shown)
Reply text: 60%

Inquiry: Entry Cc1c(Cc2ccccc2N(S(C)(=O)=O)S(=O)(=O)C(F)(F)F)c(=O)on1C(C)c1ccccc1 (stereo not shown) needs its herbicidal effect (herbicidal rate), Amaranthus viridis filled in; supply it.
Reply text: 40%
